# system_under_test: Lysine-specific demethylase 4D (Homo sapiens)
# protocol_summary: Inhibition of KDM4D (unknown origin) at 10 uM using biotinylated H3 derived peptide as substrate preincubated for 15 mins followed by substrate addition measured after 1 hr by AlphaLISA method
I'd appreciate it if you could supply inhibition values for the items below.
State the answer as a number, implicitly in %.

**Q:** Item: N#Cc1cnn2c1ncc1cccnc12 Test system: Lysine-specific demethylase 4D (Homo sapiens) Read-out: inhibition Value: ?
**A:** 85.1

**Q:** Item: N#Cc1cnn2c1nc(O)c1ccc(N)cc12 Test system: Lysine-specific demethylase 4D (Homo sapiens) Read-out: inhibition Value: ?
**A:** -2.25

**Q:** Item: N#Cc1c(-c2ccccc2)nn2c1nc(O)c1cccnc12 Test system: Lysine-specific demethylase 4D (Homo sapiens) Read-out: inhibition Value: ?
**A:** 23.6

**Q:** Item: N#Cc1cnn2c1nc(O)c1ccncc12 Test system: Lysine-specific demethylase 4D (Homo sapiens) Read-out: inhibition Value: ?
**A:** 68.1

**Q:** Item: N#Cc1cnn2c1nc(O)c1cccnc12 Test system: Lysine-specific demethylase 4D (Homo sapiens) Read-out: inhibition Value: ?
**A:** 20.1

**Q:** Item: Cc1nn2c(nc(O)c3cccnc32)c1C#N Test system: Lysine-specific demethylase 4D (Homo sapiens) Read-out: inhibition Value: ?
**A:** 88.8

**Q:** Item: CS(=O)(=O)c1ccc2c(O)nc3c(C#N)cnn3c2c1 Test system: Lysine-specific demethylase 4D (Homo sapiens) Read-out: inhibition Value: ?
**A:** 9.63

**Q:** Item: N#Cc1cnn2c1nc(O)c1ccc(C(F)(F)F)cc12 Test system: Lysine-specific demethylase 4D (Homo sapiens) Read-out: inhibition Value: ?
**A:** -0.35

**Q:** Item: N#Cc1cnn2c1nc(O)c1ccc(Cl)nc12 Test system: Lysine-specific demethylase 4D (Homo sapiens) Read-out: inhibition Value: ?
**A:** 58.7

**Q:** Item: N#Cc1cnn2c1nc(O)c1ncccc12 Test system: Lysine-specific demethylase 4D (Homo sapiens) Read-out: inhibition Value: ?
**A:** 5.26

**Q:** Item: N#Cc1cnn2c1nc(O)c1cc([N+](=O)[O-])cnc12 Test system: Lysine-specific demethylase 4D (Homo sapiens) Read-out: inhibition Value: ?
**A:** 1.91

**Q:** Item: N#Cc1cnn2c1nc(O)c1ccccc12 Test system: Lysine-specific demethylase 4D (Homo sapiens) Read-out: inhibition Value: ?
**A:** 9.03

**Q:** Item: N#Cc1cnn2c1nc(O)c1cnccc12 Test system: Lysine-specific demethylase 4D (Homo sapiens) Read-out: inhibition Value: ?
**A:** 16.4

**Q:** Item: N#Cc1cnn2c1nc(O)c1cccc(N)c12 Test system: Lysine-specific demethylase 4D (Homo sapiens) Read-out: inhibition Value: ?
**A:** 62.3

**Q:** Item: Oc1ccccc1-c1ccn(-c2nccc(N3CCOCC3)n2)n1 Test system: Lysine-specific demethylase 4D (Homo sapiens) Read-out: inhibition Value: ?
**A:** 99.7

**Q:** Item: N#Cc1cnn2c1nc(O)c1cccc([N+](=O)[O-])c12 Test system: Lysine-specific demethylase 4D (Homo sapiens) Read-out: inhibition Value: ?
**A:** 73.3

**Q:** Item: Cc1ccc2c(O)nc3c(C#N)cnn3c2n1 Test system: Lysine-specific demethylase 4D (Homo sapiens) Read-out: inhibition Value: ?
**A:** 21.9

**Q:** Item: N#Cc1cnn2c1nc(O)c1ccc([N+](=O)[O-])cc12 Test system: Lysine-specific demethylase 4D (Homo sapiens) Read-out: inhibition Value: ?
**A:** 4.75

**Q:** Item: Cc1nc2c(C#N)cnn2c2ncccc12 Test system: Lysine-specific demethylase 4D (Homo sapiens) Read-out: inhibition Value: ?
**A:** 22.9

**Q:** Item: N#Cc1cnn2c1nc(O)c1ccc(C(F)(F)F)nc12 Test system: Lysine-specific demethylase 4D (Homo sapiens) Read-out: inhibition Value: ?
**A:** 10.4

**Q:** Item: N#Cc1cnn2c1nc(O)c1cccc(C(F)(F)F)c12 Test system: Lysine-specific demethylase 4D (Homo sapiens) Read-out: inhibition Value: ?
**A:** 8.63

**Q:** Item: CCc1nn2c(nc(O)c3cccnc32)c1C#N Test system: Lysine-specific demethylase 4D (Homo sapiens) Read-out: inhibition Value: ?
**A:** 78.1
